Measured values drawn from patent EP1247803A2 for this set.

Tested on: MET
Experiment: MET biochemical kinase assay
Design: species or system human; concentration or dose not given beside the values
Rule: Met Kinase % Inhibition below 40% gives Yes. Equal to or above 40% gives No.

Met Kinase % Inhibition under 40%? Item: COc1ccc(Br)c(C=C2C(=O)Nc3ccc(S(=O)(=O)N4CCOCC4)cc32)c1O [10725/F03]
No

---
Dear colleague, could you confirm whether Met Kinase % Inhibition of O=C1Nc2c(Br)cc(Br)cc2C1=Cc1cccc([N+](=O)[O-])c1 [10719/A10] falls below 40%? Thanks.
Yes

Is 40% strictly greater than the compound's reported Met Kinase % Inhibition? compound: CNS(=O)(=O)c1ccc2c(c1)C(=Cc1c(F)cccc1C(F)(F)F)C(=O)N2 [10728/D09]
Yes

Item CNS(=O)(=O)c1ccc2c(c1)C(=Cc1ccc([N+](=O)[O-])o1)C(=O)N2 [10718/D11] : Met Kinase % Inhibition beneath 40%, strictly?
Yes

Bench note: check whether O=C1Nc2ccc(I)cc2C1=Cc1ccc(F)cc1C(F)(F)F [10719/B11] shows Met Kinase % Inhibition below 40%
Yes

Please indicate whether the reported Met Kinase % Inhibition of O=C1Nc2ccc(CCCl)cc2C1=Cc1coc2ccccc2c1=O [10727/G07] is strictly below 40%.
Yes

Find out if reported Met Kinase % Inhibition for O=C1Nc2c(Br)cc(Br)cc2C1=Cc1ccc(C(F)(F)F)cc1 [10722/A11] is less than 40%
No

Please indicate whether the reported Met Kinase % Inhibition of CCN(CC)c1ccc(C=C2C(=O)Nc3ccc(CCCl)cc32)cc1 [10727/G02] is strictly below 40%.
No

Does CC(C)c1ccc2occ(C=C3C(=O)Nc4ccc(S(=O)(=O)N5CCOCC5)cc43)c(=O)c2c1 [10731/F05] have Met Kinase % Inhibition strictly under 40%?
No
